The origin of these recorded values is patent US20170037028A1.

For each of the compounds below, state its pIC50.
ASSAY TARGET: GLUT1 (Homo sapiens, UniProt P11166)
Sequence (P11166 whole entry, species assumed): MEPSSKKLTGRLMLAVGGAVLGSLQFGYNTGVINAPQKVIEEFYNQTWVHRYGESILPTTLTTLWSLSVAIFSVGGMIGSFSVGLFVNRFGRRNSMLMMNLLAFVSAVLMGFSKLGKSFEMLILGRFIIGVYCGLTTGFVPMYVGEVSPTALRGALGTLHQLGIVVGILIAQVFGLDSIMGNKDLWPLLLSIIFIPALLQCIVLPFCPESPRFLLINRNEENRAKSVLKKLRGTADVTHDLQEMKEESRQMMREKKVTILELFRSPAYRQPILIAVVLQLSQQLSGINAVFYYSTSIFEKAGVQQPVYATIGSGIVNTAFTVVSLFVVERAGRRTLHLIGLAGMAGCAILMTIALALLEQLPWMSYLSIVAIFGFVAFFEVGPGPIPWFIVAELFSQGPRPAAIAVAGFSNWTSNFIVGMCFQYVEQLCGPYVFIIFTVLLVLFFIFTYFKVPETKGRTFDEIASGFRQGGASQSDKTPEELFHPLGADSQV
PROCEDURE SUMMARY: Indirect measurement of GLUT1 activity by quantification of intracellular ATP levels (glucose induced ATP increase)
Format: cell-based
Design: endogenous in cells; host or cells: DLD1 or CHO-K1
CONDITION CONTEXT: read-out: IC50 regarding glucose induced ATP increase (GLUT1 inhibition)
Reminder that pIC50 is minus the log10 of a molar concentration.

Input line: Data request, read-out pIC50, for `Cc1nn(Cc2ccc(C(=O)NC[C@H](C)O)cc2)c(C)c1NC(=O)c1cc(C(F)(F)F)nc2ccc(Br)cc12`
Output line: 8.02

Input line: Data request, read-out pIC50, for `Cc1c(NC(=O)c2cc(C(N)=O)nc3cc(F)ccc23)c(C(F)(F)F)nn1Cc1ncccc1C#N`
Output line: 7.81

Input line: Data request, read-out pIC50, for `Cc1nn(Cc2cccc(OC(F)(F)F)c2)c(C)c1NC(=O)c1cc(C(F)(F)F)nc2c(Cl)cc(Cl)cc12`
Output line: 6.53

Input line: Data request, read-out pIC50, for `Cc1nn(Cc2ccc(F)cc2)c(C)c1NC(=O)c1cc(C(F)(F)F)nc2ccc(C(F)(F)F)cc12`
Output line: 6.44

Input line: Data request, read-out pIC50, for `COc1cccc(Cn2nc(C)c(NC(=O)c3cc(C(N)=O)nc4ccccc34)c2C)c1`
Output line: 8.06

Input line: Data request, read-out pIC50, for `Cc1nn(Cc2ccc(F)cc2)c(C)c1NC(=O)c1cc(N2CCOCC2)nc2ccccc12`
Output line: 6.36

Input line: Data request, read-out pIC50, for `Cc1nn(Cc2ccc(C(=O)NCc3ccccn3)cc2)c(C)c1NC(=O)c1cc(C(F)(F)F)nc2ccc(Br)cc12`
Output line: 7.71
